Exercise: state measured fold repression for each of the binders provided.
Target: T1, ECF11_987
T1 chain: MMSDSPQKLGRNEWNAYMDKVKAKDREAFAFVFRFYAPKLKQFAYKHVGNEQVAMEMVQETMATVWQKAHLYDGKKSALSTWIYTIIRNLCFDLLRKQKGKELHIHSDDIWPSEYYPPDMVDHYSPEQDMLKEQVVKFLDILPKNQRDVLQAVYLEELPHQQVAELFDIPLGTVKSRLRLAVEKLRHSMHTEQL
Quick one: just the number, no unit, thanks!

I would be grateful if you could share the reported fold repression for AS33_375 (protein) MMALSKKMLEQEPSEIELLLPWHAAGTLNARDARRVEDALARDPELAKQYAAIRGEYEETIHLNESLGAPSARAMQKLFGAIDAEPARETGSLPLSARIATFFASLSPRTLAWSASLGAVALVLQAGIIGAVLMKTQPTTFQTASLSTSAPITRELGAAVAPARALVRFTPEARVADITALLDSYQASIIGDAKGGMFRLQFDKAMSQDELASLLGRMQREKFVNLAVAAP . 17.1

What do we get for AS31_34 (protein) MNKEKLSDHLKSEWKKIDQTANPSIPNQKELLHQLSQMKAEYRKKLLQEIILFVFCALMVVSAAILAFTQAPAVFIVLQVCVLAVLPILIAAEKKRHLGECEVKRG ? 3.03

Can you handle AS35_3582 (protein) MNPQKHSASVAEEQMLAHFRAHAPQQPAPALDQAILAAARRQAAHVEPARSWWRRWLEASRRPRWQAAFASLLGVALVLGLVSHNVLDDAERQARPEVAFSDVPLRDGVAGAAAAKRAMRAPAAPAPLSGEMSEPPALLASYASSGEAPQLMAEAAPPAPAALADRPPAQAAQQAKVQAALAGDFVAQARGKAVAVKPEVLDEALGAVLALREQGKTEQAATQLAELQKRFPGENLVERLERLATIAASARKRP next? 9.63

Also, AS16_3622 (protein) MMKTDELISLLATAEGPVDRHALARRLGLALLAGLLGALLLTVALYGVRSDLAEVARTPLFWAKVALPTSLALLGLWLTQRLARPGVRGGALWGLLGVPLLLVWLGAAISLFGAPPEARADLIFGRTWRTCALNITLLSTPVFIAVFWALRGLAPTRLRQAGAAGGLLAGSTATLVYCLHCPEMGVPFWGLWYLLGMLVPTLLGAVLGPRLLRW please. 4.23
